- Experiment: Individual predicted steady-state PK parameters (400 mg BID) derived from the final PopPK model
- Assay type: in vivo
- Setup Conditions: human, plasma, oral, 400 mg, 400 mg BID steady state; all participants, n = 667; read-out: AUC0–τ, geometric mean (%CV)
- Experimental: The final model was used to derive individual estimates of steady-state AUC over one dosing interval (AUC0–τ), Cmax.ss, and minimum maribavir plasma concentration (Ctrough.ss) for a 400 mg BID dosing regimen for all participants in the PopPK analysis. […] The PK parameters AUC0–τ (linear up/log down trapezoidal rule), Cmax.ss, and Ctrough.ss were determined by non-compartmental methods. […]
Recorded Metric: AUC (µg·h/mL)
Provide the reading as a plain figure in µg·h/mL.

Which AUC value is on record for "CC(C)Nc1nc2cc(Cl)c(Cl)cc2n1[C@H]1O[C@@H](CO)[C@H](O)[C@@H]1O" ? 121
